target: albumin (Homo sapiens, UniProt P02768)
Construct: tissue Zen-Bio; host or cells: pooled human whole blood (K2EDTA, 36 donors) and plasma prepared from it
Sequence (P02768 25-609): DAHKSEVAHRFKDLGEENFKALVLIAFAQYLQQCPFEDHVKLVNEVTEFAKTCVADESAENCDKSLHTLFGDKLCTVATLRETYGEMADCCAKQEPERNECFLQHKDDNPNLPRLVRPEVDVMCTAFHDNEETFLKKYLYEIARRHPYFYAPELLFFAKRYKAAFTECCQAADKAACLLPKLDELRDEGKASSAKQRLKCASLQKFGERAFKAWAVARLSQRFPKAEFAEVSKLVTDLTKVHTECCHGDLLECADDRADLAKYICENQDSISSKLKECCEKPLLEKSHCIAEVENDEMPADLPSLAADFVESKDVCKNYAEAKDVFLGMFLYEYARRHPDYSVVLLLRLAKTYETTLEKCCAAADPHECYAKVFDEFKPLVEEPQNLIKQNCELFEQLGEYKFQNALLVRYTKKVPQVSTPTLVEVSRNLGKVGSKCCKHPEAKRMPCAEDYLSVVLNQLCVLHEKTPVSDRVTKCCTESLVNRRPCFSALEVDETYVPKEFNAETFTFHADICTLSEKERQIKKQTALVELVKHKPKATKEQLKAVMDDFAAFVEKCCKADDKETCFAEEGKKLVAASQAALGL
experimentDescription: in vitro
Type: in vitro ADME
measurementSetup: blood, pooled human whole blood, 8 min, 37° C., 12.0 μM, read-out: % bound (converted)
measuredAttribute: fraction unbound

- cpdSmiles: "COc1cc2cc(c1Cl)N(C)C(=O)C[C@H](OC(=O)COc1cccc(/C(C)=N/NC(=O)c3ccc(NC(=O)CCCCCN4C(=O)C=CC4=O)cc3S(=O)(=O)O)c1)[C@]1(C)O[C@H]1[C@H](C)[C@@H]1C[C@@](O)(NC(=O)O1)[C@H](OC)/C=C/C=C(\\C)C2"
  resultNumber: 0.007
- cpdSmiles: "COc1cc2cc(c1Cl)N(C)C(=O)C[C@H](OC(=O)Cc1ccc(/C(C)=N/NC(=O)c3ccc(NC(=O)CCCCCN4C(=O)C=CC4=O)cc3S(=O)(=O)O)cc1F)[C@]1(C)O[C@H]1[C@H](C)[C@@H]1C[C@@](O)(NC(=O)O1)[C@H](OC)/C=C/C=C(\\C)C2"
  resultNumber: 0.015

----------
experimentDescription: In vitro cytotoxicity in different cell lines using the CellTiter-Blue Cell Viability Assay
Format: cell-based, human
measurementSetup: Homo sapiens; geometric mean over the n cell lines tested, 96 h treatment, CellTiter-Blue; read-out: Geomean IC50
Documented IC50 across a set of compounds
measuredAttribute: IC50

- compound: "COc1cc2cc(c1Cl)N(C)C(=O)C[C@H](OC(=O)[C@H](C)N(C)C(C)=O)[C@]1(C)O[C@H]1[C@H](C)[C@@H]1C[C@@](O)(NC(=O)O1)[C@H](OC)/C=C/C=C(\\C)C2 [Maytansine, maytansine, reference compound]"
  measuredAttribute: "IC50"
  result: "0.22 nM"
- compound: "COc1cc2cc(c1Cl)N(C)C(=O)C[C@H](OC(=O)Cc1ccc(C(C)=O)cc1F)[C@]1(C)O[C@H]1[C@H](C)[C@@H]1C[C@@](O)(NC(=O)O1)[C@H](OC)/C=C/C=C(\\C)C2 [Compound 2]"
  measuredAttribute: "IC50"
  result: "0.3 nM"
- compound: "COc1cc2cc(c1Cl)N(C)C(=O)CC(O)C1(C)OC1C(C)C1CC(O)(NC(=O)O1)C(OC)/C=C/C=C(\\C)C2 (centres unmarked) [Maytansinol, reference compound]"
  measuredAttribute: "IC50"
  result: "86 nM"
- compound: "COc1cc2cc(c1Cl)N(C)C(=O)C[C@H](OC(=O)COc1cccc(C(C)=O)c1)[C@]1(C)O[C@H]1[C@H](C)[C@@H]1C[C@@](O)(NC(=O)O1)[C@H](OC)/C=C/C=C(\\C)C2 [Compound 3]"
  measuredAttribute: "IC50"
  result: "0.1 nM"
- compound: "COc1cc2cc(c1Cl)N(C)C(=O)C[C@H](OC(=O)Cc1ccc(C(C)=O)cc1)[C@]1(C)O[C@H]1[C@H](C)[C@@H]1C[C@@](O)(NC(=O)O1)[C@H](OC)/C=C/C=C(\\C)C2 [Compound 4]"
  measuredAttribute: "IC50"
  result: "0.16 nM"

----------
experimentDescription: Stability and release kinetics of maytansinoid-HSA conjugates in buffer solution at pH 4.0 and pH 7.4
Assay type: physicochemical
measurementSetup: maytansinoid-HSA conjugate, PBS pH 7.4, 37° C., measured at 200 μM

- cpdSmiles: "COc1cc2cc(c1Cl)N(C)C(=O)C[C@H](OC(=O)Cc1ccc(/C(C)=N/NC(=O)c3ccc(NC(=O)CCNC(=O)[C@H](CS(=O)(=O)O)NC(=O)CCCCCN4C(=O)C=CC4=O)cc3[N+](=O)[O-])cc1)[C@]1(C)O[C@H]1[C@H](C)[C@@H]1C[C@@](O)(NC(=O)O1)[C@H](OC)/C=C/C=C(\\C)C2"
  u: "%*"
  free maytansinoid after 24 h at pH 7.4: 6.5
- cpdSmiles: "COc1cc2cc(c1Cl)N(C)C(=O)C[C@H](OC(=O)CSc1ccc(/C(C)=N/NC(=O)c3ccc(NC(=O)CCCCCN4C(=O)C=CC4=O)cc3S(=O)(=O)O)cc1)[C@]1(C)O[C@H]1[C@H](C)[C@@H]1C[C@@](O)(NC(=O)O1)[C@H](OC)/C=C/C=C(\\C)C2"
  u: "%*"
  free maytansinoid after 24 h at pH 7.4: 3.9
- cpdSmiles: "COc1cc2cc(c1Cl)N(C)C(=O)C[C@H](OC(=O)COc1cccc(/C(C)=N/NC(=O)c3ccc(NC(=O)CCCCCN4C(=O)C=CC4=O)cc3S(=O)(=O)O)c1)[C@]1(C)O[C@H]1[C@H](C)[C@@H]1C[C@@](O)(NC(=O)O1)[C@H](OC)/C=C/C=C(\\C)C2"
  u: "%*"
  free maytansinoid after 24 h at pH 7.4: 4.0
